Reference source for all entries: PubChem BioAssay AID1963428

# Tested on: 171881-019-R-J1-PDC complex spheroid growth, % test/control
# Protocol Summary: Anticancer human tumor 171881-019-R-J1-PDC patient-derived invasive breast carcinoma cell line growth inhibition [Asc]
# Experimental Context: second compound 0.1 µM; first compound 3 µM; stronger effect = lower value
Quantity Kind: viability, T/C

IN: Return viability, T/C measured with 171881-019-R-J1-PDC complex spheroid growth, % test/control given this molecule: Cc1nc(N2CCC3(CC2)COC(C)C3N)c(CO)nc1Sc1ccnc(N)c1Cl (centres undefined) + CNC(C)C(=O)NC1CN(S(=O)(=O)c2cccc(S(=O)(=O)N3CCC4CCC(C(=O)NC(c5ccccc5)c5ccccc5)N4C(=O)C(NC(=O)C(C)NC)C3)c2)CCC2CCC(C(=O)NC(c3ccccc3)c3ccccc3)N2C1=O
OUT: 155%

IN: Which viability, T/C is reported with 171881-019-R-J1-PDC complex spheroid growth, % test/control for this entry: CCN1C(C(=O)NC23CCC(C(=O)O)(CC2)CC3)C(c2cccc(Cl)c2F)C2(C(=O)Nc3cc(Cl)ccc32)C12CCCCC2 (centres undefined) + Cc1c(S(C)(=O)=O)c(-c2cc(F)cc(N3CCN(c4ccc(NS(=O)(=O)c5ccc(NC(CCN6CCC(C(=O)OCCCP(=O)(O)O)CC6)CSc6ccccc6)c(S(=O)(=O)C(F)(F)F)c5)cc4)CC3)c2)c(-c2ccc(Cl)cc2)n1C(C)C ?
OUT: 120%

IN: Record Cc1nc(N2CCC3(CC2)COC(C)C3N)c(CO)nc1Sc1ccnc(N)c1Cl (centres undefined) + Cc1c(S(C)(=O)=O)c(-c2cc(F)cc(N3CCN(c4ccc(NS(=O)(=O)c5ccc(NC(CCN6CCC(C(=O)OCCCP(=O)(O)O)CC6)CSc6ccccc6)c(S(=O)(=O)C(F)(F)F)c5)cc4)CC3)c2)c(-c2ccc(Cl)cc2)n1C(C)C : what is its viability, T/C with 171881-019-R-J1-PDC complex spheroid growth, % test/control?
OUT: 102%

IN: So what viability, T/C did CCN1C(C(=O)NC23CCC(C(=O)O)(CC2)CC3)C(c2cccc(Cl)c2F)C2(C(=O)Nc3cc(Cl)ccc32)C12CCCCC2 (centres undefined) + CNC(C)C(=O)NC1CN(S(=O)(=O)c2cccc(S(=O)(=O)N3CCC4CCC(C(=O)NC(c5ccccc5)c5ccccc5)N4C(=O)C(NC(=O)C(C)NC)C3)c2)CCC2CCC(C(=O)NC(c3ccccc3)c3ccccc3)N2C1=O get with 171881-019-R-J1-PDC complex spheroid growth, % test/control?
OUT: 132%

====

# Test system: 171881-019-R-J1-PDC complex spheroid growth, % test/control
# Protocol Summary: Anticancer human tumor 171881-019-R-J1-PDC cell line growth inhibition [Asc]
# Experimental Context: curve of first compound; second compound 0.949 µM
Quantity Kind: IC50 (nM)
Field: numeric (nM). Do not append units.

IN: Please look up its IC50: O=C(c1ccc(F)c(F)c1Nc1ccc(I)cc1F)N1CC(O)([C@@H]2CCCCN2)C1 + CCN1C(C(=O)NC23CCC(C(=O)O)(CC2)CC3)C(c2cccc(Cl)c2F)C2(C(=O)Nc3cc(Cl)ccc32)C12CCCCC2
OUT: 455

IN: Would you kindly share the measured IC50 for NC(=O)C(=Cn1cnc(-c2cc(C(F)(F)F)cc(C(F)(F)F)c2)n1)c1cncnc1 + CCN1C(C(=O)NC23CCC(C(=O)O)(CC2)CC3)C(c2cccc(Cl)c2F)C2(C(=O)Nc3cc(Cl)ccc32)C12CCCCC2 ?
OUT: 38.1

====

# Test system: 171881-019-R-J1-PDC complex spheroid growth, % test/control
# Protocol Summary: Anticancer human tumor 171881-019-R-J1-PDC cell line growth inhibition [Asc]
# Experimental Context: curve of first compound; second compound 0.03 µM
IC50: recorded values

{"Compound": "NC1CCC(NC2CC2c2ccccc2)CC1 (centres undefined) + CCN1C(C(=O)NC23CCC(C(=O)O)(CC2)CC3)C(c2cccc(Cl)c2F)C2(C(=O)Nc3cc(Cl)ccc32)C12CCCCC2", "IC50": "> 0.1 µM"}
{"Compound": "C=CC(=O)N1CCN(c2nc(=O)n(-c3c(C)ccnc3C(C)C)c3nc(-c4c(O)cccc4F)c(F)cc23)C(C)C1 (centres undefined) + CCN1C(C(=O)NC23CCC(C(=O)O)(CC2)CC3)C(c2cccc(Cl)c2F)C2(C(=O)Nc3cc(Cl)ccc32)C12CCCCC2", "IC50": "> 10 µM"}
{"Compound": "C=C(F)C(=O)N1CCN(c2nc(OCC3CCCN3C)nc3c2CCN(c2cccc4cccc(Cl)c24)C3)CC1CC#N (centres undefined) + CCN1C(C(=O)NC23CCC(C(=O)O)(CC2)CC3)C(c2cccc(Cl)c2F)C2(C(=O)Nc3cc(Cl)ccc32)C12CCCCC2", "IC50": "5.96 µM"}

IN: Need IC50 of O=C(c1cc(Cc2n[nH]c(=O)c3ccccc23)ccc1F)N1CCN(C(=O)C2CC2)CC1 + CCN1C(C(=O)NC23CCC(C(=O)O)(CC2)CC3)C(c2cccc(Cl)c2F)C2(C(=O)Nc3cc(Cl)ccc32)C12CCCCC2 , thanks.
OUT: > 10 µM

====

Below, each entry is listed with its recorded viability, T/C.
# Tested on: 171881-019-R-J1-PDC complex spheroid growth, % test/control
# Protocol Summary: Anticancer human tumor 171881-019-R-J1-PDC cell line growth inhibition [Asc];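 as to viability, T/C: spheroids exposed to compounds for 7 days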
# Experimental Context: second compound 0.3 µM; first compound 0.00316 µM; stronger effect = lower value

IN: # value lookup — system 171881-019-R-J1-PDC complex spheroid growth, % test/control, readout viability, T/C, item COc1c(OCCCN2CCOCC2)ccc2c3n(c(=NC(=O)c4cnc(N)nc4)nc12)CCN3 + CCN1C(C(=O)NC23CCC(C(=O)O)(CC2)CC3)C(c2cccc(Cl)c2F)C2(C(=O)Nc3cc(Cl)ccc32)C12CCCCC2
OUT: 143%

IN: What is its viability, T/C for 171881-019-R-J1-PDC complex spheroid growth, % test/control? Entry: O=C(c1ccc(F)c(F)c1Nc1ccc(I)cc1F)N1CC(O)([C@@H]2CCCCN2)C1 + CCN1C(C(=O)NC23CCC(C(=O)O)(CC2)CC3)C(c2cccc(Cl)c2F)C2(C(=O)Nc3cc(Cl)ccc32)C12CCCCC2
OUT: 87.6%

IN: API: value(readout=viability, T/C, system=171881-019-R-J1-PDC complex spheroid growth, % test/control) for record Cn1ncnc1[C@H]1c2n[nH]c(=O)c3cc(F)cc(c23)N[C@@H]1c1ccc(F)cc1 + CCN1C(C(=O)NC23CCC(C(=O)O)(CC2)CC3)C(c2cccc(Cl)c2F)C2(C(=O)Nc3cc(Cl)ccc32)C12CCCCC2
OUT: 101%

====

# System: 171881-019-R-J1-PDC complex spheroid growth, % test/control
# Protocol Summary: Anticancer human tumor 171881-019-R-J1-PDC cell line growth inhibition [Asc]
# Experimental Context: curve of first compound; second compound 0.316 µM
IC50 values for the compounds below.

{"Compound": "NC(=O)C(=Cn1cnc(-c2cc(C(F)(F)F)cc(C(F)(F)F)c2)n1)c1cncnc1 + CNC(C)C(=O)NC1CN(S(=O)(=O)c2cccc(S(=O)(=O)N3CCC4CCC(C(=O)NC(c5ccccc5)c5ccccc5)N4C(=O)C(NC(=O)C(C)NC)C3)c2)CCC2CCC(C(=O)NC(c3ccccc3)c3ccccc3)N2C1=O", "IC50": "58.6 nM"}

Below: the item to evaluate.
IN: What value of IC50 has been reported for the following compound? O=C(c1cc(Cc2n[nH]c(=O)c3ccccc23)ccc1F)N1CCN(C(=O)C2CC2)CC1 + CNC(C)C(=O)NC1CN(S(=O)(=O)c2cccc(S(=O)(=O)N3CCC4CCC(C(=O)NC(c5ccccc5)c5ccccc5)N4C(=O)C(NC(=O)C(C)NC)C3)c2)CCC2CCC(C(=O)NC(c3ccccc3)c3ccccc3)N2C1=O
OUT: > 10000 nM

====

# Tested on: 171881-019-R-J1-PDC complex spheroid growth, % test/control
# Protocol Summary: Anticancer human tumor 171881-019-R-J1-PDC cell line growth inhibition [Asc]
# Experimental Context: curve of first compound; second compound 0.1 µM
pIC50: −log10 of the molar value.
Measured pIC50, listed per entry.

{"Molecule": "CCN1C(C(=O)NC23CCC(C(=O)O)(CC2)CC3)C(c2cccc(Cl)c2F)C2(C(=O)Nc3cc(Cl)ccc32)C12CCCCC2 (stereo not drawn) + CNC(C)C(=O)NC1CN(S(=O)(=O)c2cccc(S(=O)(=O)N3CCC4CCC(C(=O)NC(c5ccccc5)c5ccccc5)N4C(=O)C(NC(=O)C(C)NC)C3)c2)CCC2CCC(C(=O)NC(c3ccccc3)c3ccccc3)N2C1=O", "Target System": "171881-019-R-J1-PDC complex spheroid growth, % test/control", "Assay Value": "< 5.52"}

IN: Query: pIC50; subject: NC1CCC(NC2CC2c2ccccc2)CC1 (stereo not drawn) + Cc1c(S(C)(=O)=O)c(-c2cc(F)cc(N3CCN(c4ccc(NS(=O)(=O)c5ccc(NC(CCN6CCC(C(=O)OCCCP(=O)(O)O)CC6)CSc6ccccc6)c(S(=O)(=O)C(F)(F)F)c5)cc4)CC3)c2)c(-c2ccc(Cl)cc2)n1C(C)C
OUT: < 7.00

IN: Look at this molecule and give its reported pIC50. CCN1C(C(=O)NC23CCC(C(=O)O)(CC2)CC3)C(c2cccc(Cl)c2F)C2(C(=O)Nc3cc(Cl)ccc32)C12CCCCC2 (stereo not drawn) + Cc1c(S(C)(=O)=O)c(-c2cc(F)cc(N3CCN(c4ccc(NS(=O)(=O)c5ccc(NC(CCN6CCC(C(=O)OCCCP(=O)(O)O)CC6)CSc6ccccc6)c(S(=O)(=O)C(F)(F)F)c5)cc4)CC3)c2)c(-c2ccc(Cl)cc2)n1C(C)C
OUT: < 5.52
